- Test system: HT29 colon
- test-method-notes: NCI tumour cell line growth inhibition, 48 h; in the data active = GI50 below about 0.43 µM; inactive = the rest
Please state which outcome applies, choosing from y (active), n (inactive)

INSERT INTO results (compound, target_or_system, assigned_category) VALUES
  ('C=C(C)[C@@H]1CC[C@]2(C)[C@H](CC=C3[C@@H]4[C@@H](C)[C@H](C)CC[C@]4(C(N)=O)CC[C@]32C)[C@@]1(C)CCC#N', 'HT29 colon', 'n'),
  ('CCN1C(=O)N(c2ccccc2)C2NC(=S)N(/N=C/C=C/c3ccccc3)C21 (stereo unspecified)', 'HT29 colon', 'y'),
  ('COc1cc(/C=C/C(=O)c2c(C)nc3ccccc3c2/C=C/c2ccc(C)cc2)cc(OC)c1OC', 'HT29 colon', 'n'),
  ('COC(=O)CCC1CCC(c2cc(F)ccc2F)(S(=O)(=O)c2ccc(Cl)cc2)CC1 (stereo unspecified)', 'HT29 colon', 'n'),
  ('Cc1cc2[nH]c(=O)c3c4ccccc4cn3c2cc1C', 'HT29 colon', 'n');

API: the following record is the query input.
Could you please tell me the result logged for Oc1[nH]c2c(Br)cccc2c1C1=Nc2ccccc2/C1=N/OCCN1CCCC1 in this assay?
n
